Data provenance is patent US20230331792A1.

Assay: in vivo
Conditions: female, SD, rat
REPORTED_METRIC: Tmax (h)

# SMILES_NOTATION, DISPLAY_UNIT, READOUT_NUMBER
records = [
    ("Nc1ccc(O)c(C(=O)O)c1", "h", 1.83),
]

---

Assay: in vivo
Settings: male, SD, rat

# SMILES_NOTATION, Tmax / h
data = [
    ("Nc1ccc(O)c(C(=O)O)c1", 1.67),
]

---

Test: Pharmacokinetics of montelukast with and without sMAP
Conditions: male, SD, rat, plasma, 0.2 mg
REPORTED_METRIC: Cmax (ng/mL)

# COMPOUND, READOUT_NUMBER
data = [
    ("CC(C)(O)c1ccccc1CC[C@@H](SCC1(CC(=O)O)CC1)c1cccc(/C=C/c2ccc3ccc(Cl)cc3n2)c1 [Montelukast, montelukast sodium]", 151),
]
